Reference for the values: the nanobody polyreactivity screen of Harvey et al. (2022)

# MEASUREMENT_PROTOCOL: yeast display, Sf9 membrane polyspecificity reagent, FACS + sequencing; frameworks hold sequencing errors
READOUT_LABEL: polyreactivity (PSR sort gate)

Below: 5 sequences and their reported polyreactivity (PSR sort gate).
SEQUENCE_ENTRY	polyreactivity (PSR sort gate)
QVQLVESGGGLVQAGGSLRLSCAASGSTFRPYAMGWYRQAPGKERELVARITKNGGSTYYADSVKGRFTISRDNAKNTVYLQMNSLKPEDTEVYYCAVRAWDPYTGKSDYWGQGTQVTVSS	low polyreactivity
QVQLVESGGGLVQAGGSLRLSCAASGFTFTRYTMGWYRQAPGKERELVAHITSGDSTNYADSVKGRFTISRDNAKNTVYLQKNSLKPEDTAVYYCNAEVKGFFYDYDYWGQGTQVTVSS	low polyreactivity
QVQLVDSGGGLVQAGGSLGLSCAASGSIFRNYAMGWYRQAPGKERELVAAISYRVGRTYYADSVKGRFTISRDNAKNSVYLQMNSLNPEDTAVYYCAADSRSPGHDYWGQGTQVTVSS	low polyreactivity
QVQLVESGGGLVQAGGSLRLSCAASGFTFAFYAMGWYRQAPGKERELVAAISWDGVTTYYADSVKGRFTISRDNAKNTVYLQMNSLKPEDTAVYYCNVQWYGGYDYWGQGTQVTVSS	low polyreactivity
QVQLVESGGGLVQAGGSLRLSCAASGFIFYYYTMGWYRQAPGKEREFVAAISSSGTITYYADSVKGRFTISRDNAKNTVYLQMNSLKPEDTAVYYCNAELYYPYEFWRFSGYDYWGQGTQVTVSS	low polyreactivity

Entry QVQHVESGGGLVQAGGSLRLSSAASGRTFFRSAMGWYRQAPGKERELVAAISSRGGSTYYADSVKGRFTISRDNAKNTVYLHMNSLKPEDTAVYYCNAAAFINFILYDYWGQGTQVTVSA — recorded polyreactivity (PSR sort gate) = high polyreactivity

Entry QVQLVESGGGLVQAGGSLRLSCAASGLTFQENGMGGYRQAPGKERELVASITTIGGSTYYADSVKGRFTISRDNAKNTVYLQMKSLKPEDTAVYYCAALSPIYATYGHDYWGQGTQVTVSS — recorded polyreactivity (PSR sort gate) = low polyreactivity

Entry QVQLVESGGGLVQAGGSLRLSCAASGSIFNYNAMGWYRQAPGKERELVAGITTSGGSTYYADSVKGRFTISRDNAKKTVYLQMNSLKPEDTAVYYCAAYDYISSTYFLDDYWGQGTQVTVSS — recorded polyreactivity (PSR sort gate) = low polyreactivity

Entry QVQLVESGGGLVQAGGSLRLICAASGSIFVGYAMGWYRQAPGKERELVAAISSNGGSTYYAYSVKGRFTISRDNAKNTVYLQMNSLKPEDTAVYYCAAGVRRVYASGHGAYGYWGQGTQVTVSS — recorded polyreactivity (PSR sort gate) = low polyreactivity

Entry QVQLVESGGGLVQAGGSLRLSCAASGFIFVKNAMGWYRQAPGKERELVAVISTRGGRTYYADSVKGRFTISRDNAKNTVYLQMNSMKPEDTAVYYCAAGDQYKTRRNGYGYWGQGTQVTVSS — recorded polyreactivity (PSR sort gate) = high polyreactivity

Entry QVHLVESGGGLVQAGGSFRLSCAASGSIFDGYSMGWYRQAPGKERELVAAISYRVGRTYYADSVKGRFTISRDNAKNTVYLQMNSLKPEDTAVYYCAAGYYGNGVFEYDYWGQGTQVTVSS — recorded polyreactivity (PSR sort gate) = low polyreactivity

Entry QVQLVESGGGLVQAGGSLRLSCAASGSTFVLYAMGWYRQAPGKERELVATITTSGARTHYADSVKGRFTISRDNAKNTVYLQINSLKPEDTAVYYCAAESYWTGYDYGGQGTQVTVSS — recorded polyreactivity (PSR sort gate) = low polyreactivity

Entry QVQLVESGGGLVQAGGSLRLSCAASGFTFGVNAMGWYRQAPGKERELVAAISSSGGRTYYADSVKGRFTISRDNAKNTVYLQMNSLKQEDTAVYYCAARYVYTRGGPLKRDYWGQGTQVTVSS — recorded polyreactivity (PSR sort gate) = high polyreactivity

Entry QVQLVESAGGLVQAGGSLRLSCAASGSTFGANAMGWYRQAPGKEREYVAAISRSGVRTYYADSVKGRFTISRDNAKNTVYLQMNSLKPEDTAVYYCAADGYWWTYTRYDYWGQGTQVTVSS — recorded polyreactivity (PSR sort gate) = low polyreactivity

Entry QVQLVESGGGLVQAGGSLRLSCAASGSTVVRYGMGSYRQAPGKERELVAVISRSGGSTYYADSVKARFTISRDNAKNTVFLQMNSLKPEDTAVYYCAITRYGNPNSGGVGYWGQGTQVTVSS — recorded polyreactivity (PSR sort gate) = high polyreactivity

###

# MEASUREMENT_PROTOCOL: yeast display, Sf9 membrane polyspecificity reagent, FACS + sequencing; frameworks hold sequencing errors
READOUT_LABEL: polyreactivity (PSR sort gate)

SEQUENCE_ENTRY	READOUT_LABEL	ASSAY_RESULT
QVQLVESAGGLVQAGGSLRLSFAASGFTFAKYAMGWYRQAPGKERELVAGISRRGGSTYYADSVKGRFTISRDNAKNTVYLQMNSLKPEDTAVYYCNADLVRPGYYRYDYWGQGTQVTVSS	polyreactivity (PSR sort gate)	high polyreactivity
QVQLVESGGGLVQAGGSLRLSCAASGFIFAIYAMGWYRQAPGKERELVAAITSSSSTYADSVKGRFTISRDNAKNTVYLQMNSLKPEDTAVYYCAADTYSYRYSNDYWGQGTQVTVSS	polyreactivity (PSR sort gate)	low polyreactivity
QVQLEESGGGLVQAGGSLRLICAASAMGRYRQAPGKERELVAVINSTGGSTYYADSVKGRFTISRDNAKNTVYLQMYSLKPDDTAVYYCARVTRRGPGYTTLYCRYDYWGQGTQVTVSS	polyreactivity (PSR sort gate)	low polyreactivity
QVHLVESGGGLVQAGGSLRLSCAASGSIFGYNAMGWYRQAPGKERELVAAITWRGGSTYYADSVKGRFTISRDNAKNTVYLQMNSLKPEDTAVYYCAAYVYQEYDYWGQGTQVTVSS	polyreactivity (PSR sort gate)	high polyreactivity
QVQLVESGGGLVQAGGSLRLSCAASGRIFLTYVMGWYRQAPGKERELVAAITSSGGTTYYADSVKGRFTISRDNAKNTVYLQMKSLKPEDTAVYYCNAGSSYQYGPRYNYWGQGTQVTVSS	polyreactivity (PSR sort gate)	low polyreactivity
QVQLVESGGGLVQAGGSLRLSCAASGSIFYGNAMGWYRQAPGKEREFVAGISWYGGSTYYADSVKGRFTISRDNAKNTVYLQMNSLKPEDTAVYYGATVADEPRAYSGYEESDYWGQGTQVTVSS	polyreactivity (PSR sort gate)	low polyreactivity

Entry QVQLVESGGGLVQAGGSLRLSCAASGRIFTNNARGWYSQAPGKERELVDAINVSGGRTYYADSVKGRFTISRDNAKNTVYLQMNSLKPEDTAVYYCNKVKETYMDNWGQGTQVTVSS — recorded polyreactivity (PSR sort gate) = high polyreactivity

Entry QVQLVESGGGLVQAGGSLRLSCAASGRIFRYYAMGWYRQAPGKERELVATISSSGGSTYYADSVKGRFTISRDNAKNTVYLQMNSLKPEDTAVYYCAADWYGYRQFHGYYWGQGTQVTVSS — recorded polyreactivity (PSR sort gate) = high polyreactivity

Entry QVQLVESGGGLVQAGGSLRLSCAGSGFTFGKNAMGWYRQAPGKERELVAANSGRGGRTFYADSVKGRFTISRDNAKNTVYLQMNSLKPEDTADYYCAAQRYYDNQYPYEYWGQGTQVTVSS — recorded polyreactivity (PSR sort gate) = high polyreactivity

Entry QVQLVESGGGLVQAGGSLRLSCAASGRTFGEYTMGWYRQAPGKERELVAAISSAGRTNYADSVKGRFTISRDNAKNTVYLQMNSLKPEDTAVYYCAADWTDDVPGYDYWGQGTQVTVSS — recorded polyreactivity (PSR sort gate) = low polyreactivity

Entry QVQLVESGGGLVQAGGSLRLSCAASGSIFRYNTMGWYRQAPGKERELVAAIRGDGSTNYADSVKGRFTISRANAKNTVYLQMNSLKPEDTAVYYCAVTLRGYRYAYDYWGQGTQVTVSS — recorded polyreactivity (PSR sort gate) = low polyreactivity

###

# MEASUREMENT_PROTOCOL: yeast display, Sf9 membrane polyspecificity reagent, FACS + sequencing; frameworks hold sequencing errors
READOUT_LABEL: polyreactivity (PSR sort gate)

Below: 6 sequences and their reported polyreactivity (PSR sort gate).
SEQUENCE_ENTRY	READOUT_LABEL	ASSAY_RESULT
QVQLVESGGRLVQAGGSLRLSCAASGRIFGRYAMGWYRQAPGKERELVAAISSSGGSTYYADSVKGRFTISRDNAKNTVYLQMNSLKPEDTAVYYCAAEIIKVAYRVAYYYWGQGTQVTVSS	polyreactivity (PSR sort gate)	high polyreactivity
QVQLVESGGGLVQAGGSLRLICAASGRIFGDNGMGWYTQAPGKERELVTYADSVKGRFTISRDNAKNTVYLQMNSLKPEDTAVYYCNKVPPRFSGLDENYWGQGTQVTVSS	polyreactivity (PSR sort gate)	low polyreactivity
QVQLVESGGGLVQAGGSLRLSCAASGRTFYFNAMGWYRQAPGKERELVAAITNSGGSTYYADSVKGRFTISRDNAKNTVYLQMNSLKPEDTAVYYCAATYKDGYWLVPGYGYWGQGTQVTVSS	polyreactivity (PSR sort gate)	low polyreactivity
QVQLVESGGGLVQAGGSLRLSCAASGSTFGLYAMGWYRQAPGKERELVAAIRWSGGRTYYADSVKGRFTISRDNAKNTVYLQMNSLKPEDTAVYYCAARSLRSKNDYWGQGTQVTVSS	polyreactivity (PSR sort gate)	high polyreactivity
QVQLVESGGGLVQAGGSLRLSCAASGSTFSAYAMGWYRQAPGKERELVASNSYSGSSTYYADSVKGRFTISRDNAKNTVYLQMNSLKPEESAVYYCAAVYVRKGTRYGYWGQGTQVTVSS	polyreactivity (PSR sort gate)	high polyreactivity
QEQLQESGGGLVQAGGSLRLSCAASGSISQAWYMGWYRQAPGKERELVAAINVGAITYYADSVKGRFSISRDNAKNTVYLPMNSLTPEDTGVYYCAVDQYSEAYYDYWGQGTQATVSS	polyreactivity (PSR sort gate)	high polyreactivity

Entry QVQLVDSGGGLVQAGGSLRLSCAASGRTFYTNAMGWYRQAPRKERQLVAAITRGGSTYYADSVKGRFTISRDNAKNTVYLQMNSLKPEDTAVYYCAADGRFRSHTFYYWGQGTQVTVSS — recorded polyreactivity (PSR sort gate) = high polyreactivity

Entry QVQLVESGGGLVQAGGSLRLSCAASGSIFVLYAMGWYRKAPGKERELVAAISRGVGGTNYADSVKGRFTISRDNAKITVYLQMNSLKPEDTAVYYCAAQTLRWSHYYYWGQGTQVTVSS — recorded polyreactivity (PSR sort gate) = high polyreactivity

Entry QVQLVESGGGLVQARGRLRLSCSASGRTFYGYAMGWYRQATGKERELVASISWSTGSTHYADSVKGRFTISRDNAKNTVYLQMNSLKPEDTAVYYCAAPFWRDSYVQIDYDFWGQGTQVTVSS — recorded polyreactivity (PSR sort gate) = low polyreactivity
